Value source: PubChem BioAssay (NCI)

Listed next: entries and their corresponding GI50.
System: LOX IMVI melanoma
Experiment: NCI tumour cell line growth inhibition, 48 h

Examples with their reported GI50 follow.
COc1ccccc1/C=C/C(=O)/C=C/c1ccccc1OC
1.53 µM
CN1CCN(c2ccc(C(=O)Nc3cc(-c4cccc(NS(=O)(=O)c5ccccc5)c4)[nH]n3)cc2)CC1
3.05 µM
Cc1[nH]nc2c1N=C(c1ccccc1Cl)c1cc([N+](=O)[O-])ccc1N2
1.92 µM
COc1ccc(N(C)c2c3ccccc3nc3[nH]c4ccccc4c23)cc1
0.55 µM

Next, consider the following molecule.
According to the records, this molecule `Cn1c(=O)c(Oc2ccccc2)cc2cnc(NC3CCOCC3)nc21` displays GI50 of > 25 µM
